- Test system: WM278 (Melanoma)
- protocol description: combination Emax (second highest fraction inhibited in the dose matrix, 72 h); higher = more inhibition; extreme values may be limits of the assay
Item-by-item account of combination Emax
parameter measured: combination Emax

{"molecule": "CCN(CCO)CCCOc1ccc2c(Nc3cc(CC(=O)Nc4cccc(F)c4)[nH]n3)ncnc2c1 [AZD2811] + O=C(c1cc(Cc2n[nH]c(=O)c3ccccc23)ccc1F)N1CCN(C(=O)C2CC2)CC1 [Olaparib] (first compound max 1 µM, 7x7, partner max 10 µM)", "obs value": 0.166}
{"molecule": "Cc1cc2ncnn2cc1Nc1ncc2c(n1)n(C1CCOCC1)c(=O)n2C [AZD7648] + CN(C)CCCOc1ccc(-c2ccc3ncc4c(c3c2)n(C2CCOCC2)c(=O)n4C)cn1 [AZD0156] (first compound max 10 µM, 7x7, partner max 1 µM)", "obs value": 0.188}
{"molecule": "CN(CCO)CC[C@H](CSc1ccccc1)Nc1ccc(S(=O)(=O)NC(=O)c2ccc(N3CCC([C@@H](O)c4ccccc4-c4ccc(Cl)cc4)CC3)cc2)cc1S(=O)(=O)C(F)(F)F [AZD4320] + C1CN(CCC1(C(=O)N[C@@H](CCO)C2=CC=C(C=C2)Cl)N)C3=NC=NC4=C3C=CN4 [Capivasertib] (first compound max 1 µM, 7x7, partner max 3 µM)", "obs value": 0.599}
{"molecule": "C=CCn1c(=O)c2cnc(Nc3ccc(N4CCN(C)CC4)cc3)nc2n1-c1cccc(C(C)(C)O)n1 [AZD1775] + C1CN(CCC1(C(=O)N[C@@H](CCO)C2=CC=C(C=C2)Cl)N)C3=NC=NC4=C3C=CN4 [Capivasertib] (first compound max 3 µM, partner max 3 µM)", "obs value": 0.389}
{"molecule": "COc1cc2ncnc(Nc3ccc(F)c(Cl)c3)c2cc1OCCCN1CCOCC1 [Gefitinib] + CC(C)n1c(=O)n(C)c2cnc3cc(F)c(-c4ccc(OCCCN5CCCCC5)nc4)cc3c21 [AZD1390] (first compound max 10 µM, 7x7, partner max 0.3 µM)", "obs value": 0.0959}
{"molecule": "CC1(C)CCC(CN2CCN(c3ccc(C(=O)NS(=O)(=O)c4ccc(NCC5CCOCC5)c([N+](=O)[O-])c4)c(Oc4cnc5[nH]ccc5c4)c3)CC2)=C(c2ccc(Cl)cc2)C1 [Venetoclax] + C[C@@H]1COCCN1C2=NC(=NC(=C2)C3(CC3)[S@](=N)(=O)C)C4=C5C=CNC5=NC=C4 [AZD6738] (first compound max 1 µM, 7x7, partner max 10 µM)", "obs value": 0.623}
{"molecule": "CN(C)CCCOc1ccc(-c2ccc3ncc4c(c3c2)n(C2CCOCC2)c(=O)n4C)cn1 [AZD0156] + C=CCn1c(=O)c2cnc(Nc3ccc(N4CCN(C)CC4)cc3)nc2n1-c1cccc(C(C)(C)O)n1 [AZD1775] (first compound max 1 µM, partner max 1 µM)", "obs value": 0.228}

---

- Tested on: RERF-GC-1B (Gastric Carcinoma)
- protocol description: Bliss excess, mean over the matrix (fraction); higher = more synergy
Bliss excess reference

{"compound": "COc1cc2c(cc1OCCCCCOc1cc3c(cc1OC)C(=O)N1C=C(C)C[C@H]1C=N3)N=C[C@@H]1CC(C)=CN1C2=O [SG3199] + O=C(c1cc(Cc2n[nH]c(=O)c3ccccc23)ccc1F)N1CCN(C(=O)C2CC2)CC1 [Olaparib] (first compound max 0.001 µM, 7x7, partner max 10 µM)", "Bliss excess": 0.0263}
{"compound": "CN(CCO)CC[C@H](CSc1ccccc1)Nc1ccc(S(=O)(=O)NC(=O)c2ccc(N3CCC([C@@H](O)c4ccccc4-c4ccc(Cl)cc4)CC3)cc2)cc1S(=O)(=O)C(F)(F)F [AZD4320] + C[C@@H](Nc1cc(F)cc(F)c1)c1cc(C(=O)N(C)C)cc2c(=O)cc(N3CCOCC3)oc12 [AZD8186] (first compound max 1 µM, 7x7, partner max 3 µM)", "Bliss excess": 0.0112}
{"compound": "COc1cccc2c1C(=O)c1c(O)c3c(c(O)c1C2=O)C[C@@](O)(C(=O)CO)C[C@@H]3O[C@H]1C[C@H](N)[C@H](O)[C@H](C)O1 [Doxorubicin] + Cc1cc2ncnn2cc1Nc1ncc2c(n1)n(C1CCOCC1)c(=O)n2C [AZD7648] (first compound max 1 µM, 7x7, partner max 10 µM)", "Bliss excess": -0.0142}
{"compound": "CN(CCO)CC[C@H](CSc1ccccc1)Nc1ccc(S(=O)(=O)NC(=O)c2ccc(N3CCC([C@@H](O)c4ccccc4-c4ccc(Cl)cc4)CC3)cc2)cc1S(=O)(=O)C(F)(F)F [AZD4320] + Cc1cc2ncnn2cc1Nc1ncc2c(n1)n(C1CCOCC1)c(=O)n2C [AZD7648] (first compound max 1 µM, 7x7, partner max 10 µM)", "Bliss excess": 0.0231}
{"compound": "COc1cccc(OCCCN)c1-c1cc(Nc2cnc(C#N)cn2)n[nH]1 [Prexasertib] + C[C@@H]1COCCN1C2=NC(=NC(=C2)C3(CC3)[S@](=N)(=O)C)C4=C5C=CNC5=NC=C4 [AZD6738] (first compound max 1 µM, 7x7, partner max 10 µM)", "Bliss excess": -0.119}

---

- Tested on: HEC-1 (Endometrial Carcinoma)
- protocol description: combination Emax (second highest fraction inhibited in the dose matrix, 72 h); higher = more inhibition; extreme values may be limits of the assay

{"molecule": "COc1cccc(OCCCN)c1-c1cc(Nc2cnc(C#N)cn2)n[nH]1 [Prexasertib] + CCc1c2c(nc3ccc(O)cc13)-c1cc3c(c(=O)n1C2)COC(=O)[C@]3(O)CC [SN-38] (first compound max 1 µM, 7x7, partner max 0.3 µM)", "subject of test": "HEC-1 (Endometrial Carcinoma)", "combination Emax": 0.894}
{"molecule": "Cc1c2c(nn1C)CSCc1cc(n(C)n1)CSc1cc(c3ccccc3c1)OCCCc1c(C(=O)O)n(C)c3c-2c(Cl)ccc13 [AZD5991] + CCN(CCO)CCCOc1ccc2c(Nc3cc(CC(=O)Nc4cccc(F)c4)[nH]n3)ncnc2c1 [AZD2811] (first compound max 1 µM, 7x7, partner max 1 µM)", "subject of test": "HEC-1 (Endometrial Carcinoma)", "combination Emax": 0.217}
{"molecule": "C[C@@H](c1ccc2nccn2c1)n1nnc2ncc(-c3cnn(C)c3)nc21 [Savolitinib] + CN(CC[C@H](CSC1=CC=CC=C1)NC2=C(C=C(C=C2)S(=O)(=O)NC(=O)C3=CC=C(C=C3)N4CCC(CC4)[C@H](C5=CC=CC=C5C6=CC=C(C=C6)Cl)O)S(=O)(=O)C(F)(F)F)CCO [AZD4320] (first compound max 1 µM, 7x7, partner max 1 µM)", "subject of test": "HEC-1 (Endometrial Carcinoma)", "combination Emax": 0.423}
{"molecule": "CC1(C)CCC(CN2CCN(c3ccc(C(=O)NS(=O)(=O)c4ccc(NCC5CCOCC5)c([N+](=O)[O-])c4)c(Oc4cnc5[nH]ccc5c4)c3)CC2)=C(c2ccc(Cl)cc2)C1 [Venetoclax] + C[C@@H]1COCCN1C2=NC(=NC(=C2)C3(CC3)[S@](=N)(=O)C)C4=C5C=CNC5=NC=C4 [AZD6738] (first compound max 1 µM, 7x7, partner max 10 µM)", "subject of test": "HEC-1 (Endometrial Carcinoma)", "combination Emax": 0.41}
{"molecule": "CN(CCO)CC[C@H](CSc1ccccc1)Nc1ccc(S(=O)(=O)NC(=O)c2ccc(N3CCC([C@@H](O)c4ccccc4-c4ccc(Cl)cc4)CC3)cc2)cc1S(=O)(=O)C(F)(F)F [AZD4320] + C1CN(CCC1(C(=O)N[C@@H](CCO)C2=CC=C(C=C2)Cl)N)C3=NC=NC4=C3C=CN4 [Capivasertib] (first compound max 1 µM, 7x7, partner max 3 µM)", "subject of test": "HEC-1 (Endometrial Carcinoma)", "combination Emax": 0.295}

---

Examples of compounds with documented Bliss excess follow.
- Tested on: REH (B-Lymphoblastic Leukemia)
- protocol description: Bliss excess, mean over the matrix (fraction); higher = more synergy
parameter measured: Bliss excess

{"compound": "CN(CCO)CC[C@H](CSc1ccccc1)Nc1ccc(S(=O)(=O)NC(=O)c2ccc(N3CCC([C@@H](O)c4ccccc4-c4ccc(Cl)cc4)CC3)cc2)cc1S(=O)(=O)C(F)(F)F [AZD4320] + C[C@@H](Nc1cc(F)cc(F)c1)c1cc(C(=O)N(C)C)cc2c(=O)cc(N3CCOCC3)oc12 [AZD8186] (first compound max 1 µM, 7x7, partner max 3 µM)", "subject of test": "REH (B-Lymphoblastic Leukemia)", "parameter measured": "Bliss excess", "obs value": 0.0353}
{"compound": "CN(C)CCCOc1ccc(-c2ccc3ncc4c(c3c2)n(C2CCOCC2)c(=O)n4C)cn1 [AZD0156] + CCN(CCO)CCCOc1ccc2c(Nc3cc(CC(=O)Nc4cccc(F)c4)[nH]n3)ncnc2c1 [AZD2811] (first compound max 1 µM, 7x7, partner max 1 µM)", "subject of test": "REH (B-Lymphoblastic Leukemia)", "parameter measured": "Bliss excess", "obs value": -0.0137}
{"compound": "COc1nnc2ccc(N3CCC(c4ccc(OCCN5CCN(C)C(=O)[C@H]5C)cc4)CC3)nn12 [AZD5153] + CC1(C)CCC(CN2CCN(c3ccc(C(=O)NS(=O)(=O)c4ccc(NCC5CCOCC5)c([N+](=O)[O-])c4)c(Oc4cnc5[nH]ccc5c4)c3)CC2)=C(c2ccc(Cl)cc2)C1 [Venetoclax] (first compound max 1 µM, 7x7, partner max 1 µM)", "subject of test": "REH (B-Lymphoblastic Leukemia)", "parameter measured": "Bliss excess", "obs value": -0.136}
{"compound": "CN(C)CCCOc1ccc(-c2ccc3ncc4c(c3c2)n(C2CCOCC2)c(=O)n4C)cn1 [AZD0156] + C=CCn1c(=O)c2cnc(Nc3ccc(N4CCN(C)CC4)cc3)nc2n1-c1cccc(C(C)(C)O)n1 [AZD1775] (first compound max 1 µM, partner max 1 µM)", "subject of test": "REH (B-Lymphoblastic Leukemia)", "parameter measured": "Bliss excess", "obs value": -0.0158}
{"compound": "CN(CCO)CC[C@H](CSc1ccccc1)Nc1ccc(S(=O)(=O)NC(=O)c2ccc(N3CCC([C@@H](O)c4ccccc4-c4ccc(Cl)cc4)CC3)cc2)cc1S(=O)(=O)C(F)(F)F [AZD4320] + C=CCn1c(=O)c2cnc(Nc3ccc(N4CCN(C)CC4)cc3)nc2n1-c1cccc(C(C)(C)O)n1 [AZD1775] (first compound max 1 µM, partner max 1 µM)", "subject of test": "REH (B-Lymphoblastic Leukemia)", "parameter measured": "Bliss excess", "obs value": 0.0738}
{"compound": "NC1(C(=O)N[C@@H](CCO)c2ccc(Cl)cc2)CCN(c2ncnc3[nH]ccc23)CC1 [Capivasertib] + CC(=O)c1c(C)c2cnc(Nc3ccc(N4CCNCC4)cn3)nc2n(C2CCCC2)c1=O [Palbociclib] (first compound max 10 µM, 7x7, partner max 10 µM)", "subject of test": "REH (B-Lymphoblastic Leukemia)", "parameter measured": "Bliss excess", "obs value": 0.0022}
